Source of measurements: patent US20210205272A1

test: clinical; conditions: human, in vivo, po
measurement kind: half-life
Returns: string containing the numeric result and its unit.

Q: Supply recorded half-life for Cc1nc2cc(-n3ncc(C(=O)c4cc5ccccc5[nH]4)c3N)ccc2[nH]1 here.
A: 11.5 h
